system: redroot pigweed (Amaranthus retroflexus); test: Test A pre/postemergence; assay type: in vivo; conditions: Postemergence, 125 g ai/ha; 0 to 100 scale (0 no effect, 100 complete control)
MEASURED ENDPOINT: Plant response rating, Pigweed
Give bare numbers.

Solved cases below.
>>> readout_number("CS(=O)(=O)NC(=O)c1nc(C2CC2)nc(N)c1Cl [Compound 132]")
50
>>> readout_number("Nc1nc(-c2ccc(Cl)cc2)nc(C(=O)OCc2ccccc2)c1Cl [Compound 118]")
60

For each of the items listed, what is its Plant response rating, Pigweed?
1. CCOC(=O)c1nc(-c2ccc(OC)cc2)nc(N)c1Cl [Compound 98]
2. CCOC(=O)c1nc(-c2ccc(OC(F)(F)F)cc2)nc(N)c1Cl [Compound 103]

Output:
1. 5
2. 0
